Tested on: LrAgo (Limnothrix rosea IAM M-220)
TEST METHOD NOTES: competition
DETAILS: 5'-phosphate
METRIC NAME: Kd (nM)
Give the number; nM is assumed, so skip it.

Q. Could you share what Kd was measured for GTTAGACTTTAAGTCAAT [18 nt 5'-P guide DNA (G-guide)] , tested on LrAgo (Limnothrix rosea IAM M-220)?
A. 0.0333
